- assay_summary: Cytotoxicity against Sprague-Dawley rat Cerebral cortex neuron assessed as LDH activity at 25 uM incubated for 24 hrs by LDH assay (reference value: […])
- Assay type: tissue-based
value_type: Activity (mU/ml)
A number alone suffices; assume mU/ml.

Please review the entries below; each comes with its answer.
molecule	Activity / mU/ml
O=C(CCCCC1CCSS1)N1CCN(Cc2ccccc2)CC1 (stereo unspecified)	0.32
O=C(CCCCC1CCSS1)N1CCN(Cc2ccc(F)cc2)CC1 (stereo unspecified)	0.32
COc1ccc(CN2CCC(OC(=O)CCCCC3CCSS3)CC2)cc1 (stereo unspecified)	0.32
O=C(CCCC[C@@H]1CCSS1)OC1CCN(Cc2ccccc2)CC1	0.32
O=C(CCCCC1CCSS1)OC1CCN(Cc2ccc(F)cc2)CC1 (stereo unspecified)	0.3

Query (molecule): COc1ccc(CN2CCN(C(=O)CCCCC3CCSS3)CC2)cc1 (stereo unspecified) ; field requested: Activity
0.29
